targetOfAssay: UniProt P25774
Sequence (P25774 whole entry): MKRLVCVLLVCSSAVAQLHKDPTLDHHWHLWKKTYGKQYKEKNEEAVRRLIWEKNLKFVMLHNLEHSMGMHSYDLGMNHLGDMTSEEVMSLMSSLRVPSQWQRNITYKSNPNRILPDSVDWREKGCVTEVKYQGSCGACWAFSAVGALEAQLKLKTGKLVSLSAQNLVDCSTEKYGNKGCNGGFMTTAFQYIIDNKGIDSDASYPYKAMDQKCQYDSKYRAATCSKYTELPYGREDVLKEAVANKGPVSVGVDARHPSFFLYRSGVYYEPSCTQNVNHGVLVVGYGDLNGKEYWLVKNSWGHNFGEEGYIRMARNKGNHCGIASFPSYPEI
runDescription: Inhibition of human cathepsin S by fluorescence assay
# reported IC50; entries follow
readoutKind: IC50 (nM)

# querySmiles, readoutKind, assayResult
measured = [
    ("CN(C)CCOc1ccc(-c2cc3c(ncn3C)c(C#N)n2)cc1C(F)(F)F", "IC50", 209),
    ("Cn1cnc2c(C#N)nc(-c3ccc(OCCN4CCCC4=O)c(C(F)(F)F)c3)cc21", "IC50", 7.8),
    ("CCOc1ccc(-c2cc3[nH]cnc3c(C#N)n2)cc1C(F)(F)F", "IC50", 25),
    ("Cn1cnc2c(C#N)nc(-c3ccc(OCc4ccccn4)c(C(F)(F)F)c3)cc21", "IC50", 20),
    ("CCNc1ccc(-c2cc3[nH]cnc3c(C#N)n2)cc1C(F)(F)F", "IC50", 105),
    ("CC(=O)Nc1ccc(-c2cc3[nH]cnc3c(C#N)n2)cc1C(F)(F)F", "IC50", 3240),
    ("Cn1cnc2c(C#N)nc(-c3ccc(CCCO)c(C(F)(F)F)c3)cc21", "IC50", 24),
    ("N#Cc1nc(-c2ccc(OCCCO)c(C(F)(F)F)c2)cc2[nH]cnc12", "IC50", 63),
    ("Cn1cnc2c(C#N)nc(-c3ccc(CCO)c(C(F)(F)F)c3)cc21", "IC50", 71),
    ("COc1ccc(-c2cc3[nH]cnc3c(C#N)n2)cc1C(F)(F)F", "IC50", 339),
    ("Cn1cnc2c(C#N)nc(-c3ccc(OCCC4CCNCC4)c(C(F)(F)F)c3)cc21", "IC50", 8.3),
    ("N#Cc1nc(-c2ccc(OCCO)c(C(F)(F)F)c2)cc2[nH]cnc12", "IC50", 145),
    ("N#Cc1nc(-c2ccc(OCc3ccccc3)c(C(F)(F)F)c2)cc2[nH]cnc12", "IC50", 676),
    ("CCOc1ccc(-c2cc3c(ncn3CCCN(C)C)c(C#N)n2)cc1C(F)(F)F", "IC50", 27),
    ("CCOc1ccc(-c2cc3c(ncn3CCN3CCOCC3)c(C#N)n2)cc1C(F)(F)F", "IC50", 37),
    ("CCOc1ccc(-c2cc3c(ncn3C)c(C#N)n2)cc1C(F)(F)F", "IC50", 40),
    ("Cc1cccc(CCOc2ccc(-c3cc4c(ncn4C)c(C#N)n3)cc2C(F)(F)F)n1", "IC50", 11),
    ("Cn1cnc2c(C#N)nc(-c3ccc(OCc4cccnc4)c(C(F)(F)F)c3)cc21", "IC50", 12.6),
    ("CCOc1ccc(-c2cc3c(ncn3CCCN3CCOCC3)c(C#N)n2)cc1C(F)(F)F", "IC50", 35),
    ("CN(C)CCCOc1ccc(-c2cc3c(ncn3C)c(C#N)n2)cc1C(F)(F)F", "IC50", 41),
    ("Cn1ccc2c(C#N)nc(-c3ccc(OCCN4CCCC4=O)c(C(F)(F)F)c3)cc21", "IC50", 661),
]

Recorded values, source ChEMBL document CHEMBL1208745.
